# Measurement Target: UniProtKB Q9YUQ4
# Measurement Protocol: Isothermal titration calorimetry (ITC), virulent fibre head
# Format: binding, turkey adenovirus 3 (TAdV-3)
# Settings: 25°C, pH 6.0, three independent sites per trimer

[
  {
    "Molecule": "CC(=O)NC1C(O)CC(OC2C(O)C(CO)OC(OC3C(CO)OC(O)C(O)C3O)C2O)(C(=O)O)OC1C(O)C(O)CO (centres unmarked) [3'-sialyllactose]",
    "Kd (mM)": 5.5
  }
]

----------
# Measurement Target: TAdV-3 fiber head mutant K439A (avirulent context) (Turkey adenovirus 3, UniProt A0ABF7PFF5, K439A)
# Measurement Protocol: biochemical
pKd: −log10 of the molar value.
Measured Quantity: pKd

[
  {
    "Compound": "CC(=O)NC1C(O)CC(OC2C(O)C(CO)OC(OC3C(CO)OC(O)C(O)C3O)C2O)(C(=O)O)OC1C(O)C(O)CO (stereo not shown)",
    "Test Result": 2.49
  }
]
